# test-details: Metabolic stability in Sprague-Dawley rat liver microsomes assessed as compound remaining after 60 mins in presence of NADPH by UV-based HPLC-MS/MS analysis
# Format: ADME, microsome
# conditions-used: read-out: Stability
measured-parameter: remaining at 1 h (%)
Field format: number, assumed %, no unit text.

smiles-text | remaining at 1 h, %
C=C(c1ccc(OC)c(O)c1)c1cc(OC)c(OC)c([Se]C)c1 | 62.3
COc1ccc(/C=C\c2cc(OC)c(OC)c(OC)c2)cc1O | 26.4

# context switch: different compound, same remaining at 1 h
Input: Recorded remaining at 1 h of C=C(c1ccc(OC)c(O)c1)c1cc(OC)c(OC)c(OC)c1 , please.
Output: 77.1
